Test System: KIF18a-Microtubule Complex (Homo sapiens (Human))
Sequence (Q8NI77 whole entry, looked up): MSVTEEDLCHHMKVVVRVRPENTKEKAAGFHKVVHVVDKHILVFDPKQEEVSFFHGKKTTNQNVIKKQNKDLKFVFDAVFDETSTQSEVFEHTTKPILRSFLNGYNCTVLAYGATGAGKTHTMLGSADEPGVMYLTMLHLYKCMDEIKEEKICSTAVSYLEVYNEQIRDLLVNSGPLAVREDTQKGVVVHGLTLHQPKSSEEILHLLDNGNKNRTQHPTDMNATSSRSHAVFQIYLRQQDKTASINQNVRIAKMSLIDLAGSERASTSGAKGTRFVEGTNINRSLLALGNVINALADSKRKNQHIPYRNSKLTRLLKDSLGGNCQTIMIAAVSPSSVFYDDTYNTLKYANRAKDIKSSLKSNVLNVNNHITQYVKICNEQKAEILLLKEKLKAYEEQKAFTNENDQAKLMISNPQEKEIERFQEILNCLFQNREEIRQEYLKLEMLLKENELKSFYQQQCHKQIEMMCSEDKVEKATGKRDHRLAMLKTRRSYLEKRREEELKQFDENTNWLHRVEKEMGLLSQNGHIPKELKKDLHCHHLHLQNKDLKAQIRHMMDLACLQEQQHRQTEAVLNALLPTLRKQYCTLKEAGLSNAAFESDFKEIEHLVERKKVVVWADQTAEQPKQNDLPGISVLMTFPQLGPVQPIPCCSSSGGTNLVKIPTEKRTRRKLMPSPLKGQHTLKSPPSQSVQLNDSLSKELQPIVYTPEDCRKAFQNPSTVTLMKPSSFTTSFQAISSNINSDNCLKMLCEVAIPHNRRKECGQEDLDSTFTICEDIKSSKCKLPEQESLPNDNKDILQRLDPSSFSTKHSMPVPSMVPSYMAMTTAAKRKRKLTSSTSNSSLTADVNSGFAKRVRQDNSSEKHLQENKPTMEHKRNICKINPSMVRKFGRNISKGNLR
Sequence (Q2XVP4 whole entry partner, looked up): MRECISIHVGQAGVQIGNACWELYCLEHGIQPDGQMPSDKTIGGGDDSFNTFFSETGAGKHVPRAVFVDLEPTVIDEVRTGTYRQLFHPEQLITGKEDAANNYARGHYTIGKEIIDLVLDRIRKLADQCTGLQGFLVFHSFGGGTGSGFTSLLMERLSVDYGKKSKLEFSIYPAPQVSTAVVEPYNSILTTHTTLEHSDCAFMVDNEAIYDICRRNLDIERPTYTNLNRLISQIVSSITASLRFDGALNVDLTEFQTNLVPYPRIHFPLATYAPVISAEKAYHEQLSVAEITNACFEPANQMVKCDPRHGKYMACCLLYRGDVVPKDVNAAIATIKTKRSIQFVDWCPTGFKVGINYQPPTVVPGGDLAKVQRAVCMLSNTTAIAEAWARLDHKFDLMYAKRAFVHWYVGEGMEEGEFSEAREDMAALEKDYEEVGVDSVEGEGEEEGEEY
Sequence (P02554 whole entry partner, looked up): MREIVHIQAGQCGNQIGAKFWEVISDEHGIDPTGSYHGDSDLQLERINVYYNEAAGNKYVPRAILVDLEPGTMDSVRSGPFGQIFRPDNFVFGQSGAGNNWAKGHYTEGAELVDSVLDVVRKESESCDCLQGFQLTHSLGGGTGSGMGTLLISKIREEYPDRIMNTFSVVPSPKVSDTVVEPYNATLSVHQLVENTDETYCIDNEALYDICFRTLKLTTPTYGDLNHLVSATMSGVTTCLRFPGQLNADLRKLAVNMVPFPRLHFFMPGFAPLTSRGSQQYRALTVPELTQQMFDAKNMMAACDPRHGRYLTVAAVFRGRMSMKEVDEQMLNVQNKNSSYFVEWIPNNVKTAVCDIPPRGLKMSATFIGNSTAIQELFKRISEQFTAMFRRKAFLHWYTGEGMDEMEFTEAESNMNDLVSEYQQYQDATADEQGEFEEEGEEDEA
Assay Remarks: Binding kinetics to KIF18a-microtubule complex (global progress curve analysis)
Condition Info: read-out: koff (off-rate from binding kinetics assay)
Parameter: koff. Scope: all listed entries.

Molecule	koff [s⁻¹]
CS(=O)(=O)Nc1ccc2c(c1)C1(CCC3(CC3)CC1)CN2C(=O)c1cccc(S(=O)(=O)C2CC(F)(F)C2)c1 [Compound 322]	3.33e-05
CS(=O)(=O)Nc1ccc2c(c1)C1(CCC3(CC3)CC1)CN2C(=O)c1cccc(S(=O)(=O)C2CCCC2)c1 [Compound 155]	3.06e-05
CS(=O)(=O)Nc1ccc2c(c1)C1(CCC3(CC3)CC1)CN2C(=O)c1cccc(S(=O)(=O)NC23CC(C2)C3)c1 [Compound 223]	2.44e-05
CC(C)(C)NS(=O)(=O)c1cccc(C(=O)N2CC3(CCC(F)(F)CC3)c3cc(NS(C)(=O)=O)ccc32)c1 [Compound 144]	3.89e-05
CS(=O)(=O)Nc1ccc2c(c1)C1(CCC3(CC3)CC1)CN2C(=O)c1cccc(S(=O)(=O)NC2CC(F)(F)C2)c1 [Compound 192]	9.17e-06
CS(=O)(=O)Nc1ccc2c(c1)C1(CCC3(CC3)CC1)CN2C(=O)c1cccc(S(=O)(=O)N2CC3(CCC3)C2)c1 [Compound 151]	3.06e-06
CS(=O)(=O)Nc1ccc2c(c1)C1(CCCCC1)CN2C(=O)c1cccc(S(=O)(=O)C2CCCCC2)c1 [Compound 70]	6.39e-05
